method-description: NCI Yeast Anticancer Drug Screen. Data for the bub3 strain (AID 167)
condition-context: S. cerevisiae bub3 mutant strain, at 11.0 µM
This is part of a sample that, as a whole, favours compounds with a hit. Of some 79,000 tested, about 15% had one in any assay. Active and inactive are the calls of the source. Rule as the data show it: active = growth inhibition above about 70%; inactive = the rest.
Reply using exactly one outcome from active, inactive

Some entries whose results are on file:
compound=S=C1NC2(CCCCC2)NC12CCCCC2 category=inactive
compound=CN(CCc1ccc(Br)cc1)CCN1CCCCC1 category=inactive
compound=CO[C@H](/C(C)=C/C=C/C(C)=C/c1coc(C)n1)[C@H](C)[C@H]1C[C@@H](O)[C@@]2(C)O[C@H]2/C=C/[C@@H](C)[C@@H]2C[C@@H](CC(=O)O2)C[C@H]2O[C@@H]2C(=O)O1 category=inactive
compound="CC12CCC(C1)C(C)(C)C2OC(=O)c1ccccc1N (centres undefined)" category=inactive
compound="O=C1c2ccc3ccccc3c2CCC1N1CCCCC1 (centres undefined)" category=inactive

// query # outcome recorded in this test, key = CC1=C(O)C(=O)C=C2C1=CC=C1[C@@]2(C)CCC2(C)[C@@H]3C[C@@H](C)C(=O)C[C@]3(C)CC[C@]12C (some centres undefined)
// result active

// query # outcome recorded in this test, key = CC1=C[C@H]2O[C@@H]3C[C@H]4OC(=O)/C=C\C=C\C(C(C)O)OCC(O)C(C)CC(=O)OC[C@@]2(C[C@@H]1O)[C@]4(C)[C@@]31CO1 (some centres undefined)
// result active

// query # outcome recorded in this test, key = `COc1ccc(/C=C(/C)[N+](=O)[O-])cc1`
// result inactive

// query # outcome recorded in this test, key = `Cc1ccc2c(c1N)C(=O)c1ccccc1C2=O`
// result inactive
